Biological target: human voltage-gated sodium ion channel Nav1.7 (human)
Sequence (Q15858 whole entry): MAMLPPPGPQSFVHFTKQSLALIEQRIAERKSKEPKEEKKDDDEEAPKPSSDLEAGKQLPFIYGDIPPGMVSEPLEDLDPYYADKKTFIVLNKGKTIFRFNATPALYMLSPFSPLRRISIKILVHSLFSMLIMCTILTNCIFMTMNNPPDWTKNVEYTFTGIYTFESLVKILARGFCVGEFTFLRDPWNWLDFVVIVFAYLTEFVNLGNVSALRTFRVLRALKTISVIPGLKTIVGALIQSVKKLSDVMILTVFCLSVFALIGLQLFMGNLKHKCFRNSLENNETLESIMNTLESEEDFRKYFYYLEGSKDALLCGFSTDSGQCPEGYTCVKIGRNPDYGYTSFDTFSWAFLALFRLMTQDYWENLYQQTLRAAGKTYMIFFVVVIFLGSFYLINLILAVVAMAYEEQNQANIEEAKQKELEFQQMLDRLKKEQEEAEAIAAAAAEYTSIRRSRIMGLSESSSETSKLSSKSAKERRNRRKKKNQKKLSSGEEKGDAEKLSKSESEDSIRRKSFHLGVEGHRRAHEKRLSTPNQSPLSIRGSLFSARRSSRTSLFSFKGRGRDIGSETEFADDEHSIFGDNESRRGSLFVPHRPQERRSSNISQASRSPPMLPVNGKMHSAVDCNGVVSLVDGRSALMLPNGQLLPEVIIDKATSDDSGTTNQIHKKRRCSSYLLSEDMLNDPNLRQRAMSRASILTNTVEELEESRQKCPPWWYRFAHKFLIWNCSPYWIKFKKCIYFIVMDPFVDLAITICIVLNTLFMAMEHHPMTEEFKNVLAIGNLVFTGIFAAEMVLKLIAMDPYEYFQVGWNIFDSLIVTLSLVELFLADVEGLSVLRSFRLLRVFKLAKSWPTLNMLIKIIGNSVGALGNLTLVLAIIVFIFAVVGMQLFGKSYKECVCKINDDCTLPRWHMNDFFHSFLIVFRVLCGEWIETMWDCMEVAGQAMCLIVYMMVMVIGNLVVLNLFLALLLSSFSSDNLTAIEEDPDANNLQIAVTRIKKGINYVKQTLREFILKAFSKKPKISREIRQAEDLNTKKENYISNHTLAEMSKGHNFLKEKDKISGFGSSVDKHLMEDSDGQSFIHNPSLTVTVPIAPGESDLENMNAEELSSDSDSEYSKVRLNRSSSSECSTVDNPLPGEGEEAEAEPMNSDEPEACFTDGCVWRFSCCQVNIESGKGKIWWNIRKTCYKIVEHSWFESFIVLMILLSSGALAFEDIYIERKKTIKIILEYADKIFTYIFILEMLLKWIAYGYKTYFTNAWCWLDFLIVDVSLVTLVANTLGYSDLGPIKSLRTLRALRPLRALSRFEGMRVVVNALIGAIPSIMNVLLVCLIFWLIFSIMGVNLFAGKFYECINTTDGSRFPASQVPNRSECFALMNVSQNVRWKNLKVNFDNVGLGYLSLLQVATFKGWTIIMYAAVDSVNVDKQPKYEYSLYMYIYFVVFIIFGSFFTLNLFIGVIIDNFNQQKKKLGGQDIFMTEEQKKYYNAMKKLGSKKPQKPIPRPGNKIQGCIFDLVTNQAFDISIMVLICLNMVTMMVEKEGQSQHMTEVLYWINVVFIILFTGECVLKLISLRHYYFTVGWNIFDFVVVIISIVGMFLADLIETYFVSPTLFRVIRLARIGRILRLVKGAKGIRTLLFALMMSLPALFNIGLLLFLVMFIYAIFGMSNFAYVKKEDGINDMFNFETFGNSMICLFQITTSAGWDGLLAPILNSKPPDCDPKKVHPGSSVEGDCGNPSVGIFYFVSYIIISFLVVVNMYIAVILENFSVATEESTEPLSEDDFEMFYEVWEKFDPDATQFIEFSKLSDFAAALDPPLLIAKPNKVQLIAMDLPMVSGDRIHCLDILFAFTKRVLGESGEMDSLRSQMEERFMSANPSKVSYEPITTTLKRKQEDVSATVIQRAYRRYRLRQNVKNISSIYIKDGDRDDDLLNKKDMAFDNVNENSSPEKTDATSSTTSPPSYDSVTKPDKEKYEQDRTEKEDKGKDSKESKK
Listed below: IC50 of inhibition of hNav1.7 currents, whole-cell patch clamp, HEK293T values for each entry.

Recorded IC50 of inhibition of hNav1.7 currents, whole-cell patch clamp, HEK293T, per entry:
BINDER	MEAS_VALUE
CLGFGEKCNDKCCKSSSVCSQKHKWCKY [truncated peptide T6 (from Ca2a)]	> 100 µM
CLGFGEKCNDKCCKSSSLCSQKHKWCKY [truncated peptide T5 (from Ca2a)]	> 100 µM
CLGFGEKCNPDCCKLVCSQKWCKY [truncated peptide T12 (from Ca2a)]	> 50 µM

Quick note, IC50 of inhibition of hNav1.7 currents, whole-cell patch clamp, HEK293T for CLGFGEKCNDKCCKSSSCSQKHKWCKY [truncated peptide T4 (from Ca2a)] landed at > 100 µM

Quick note, IC50 of inhibition of hNav1.7 currents, whole-cell patch clamp, HEK293T for CLGFGEKCNPSDKCCKSSSVCSQKHKWCKY [truncated peptide T7 (from Ca2a)] landed at > 100 µM

Quick note, IC50 of inhibition of hNav1.7 currents, whole-cell patch clamp, HEK293T for CLGFGEKCPSNDKCCSSSLVCSQKHKWCKY [truncated peptide T8 (from Ca2a)] landed at > 100 µM
